measurementProtocol: phase I pharmacokinetics in blood (dried blood spot, LC-MS/MS, noncompartmental analysis)
Type: in vivo, human
details: human, whole blood (dried blood spot), intravenous, 440 mg/m2, 440 mg/m^2, cycle 1 Day 22, N = 3, mean ± SD, blood
resultType: Cmax (ng/mL)
Numeric only. Scale: ng/mL

For record O=C(NCCN1CCOCC1)Nc1nc2ccc(Sc3nnc4ccc(-c5ccc(F)cc5)nn34)cc2s1 [SAR125844] the listed Cmax is 5840

====

measurementProtocol: phase I pharmacokinetics in blood (dried blood spot, LC-MS/MS, noncompartmental analysis)
Assay type: in vivo, human
details: human, whole blood (dried blood spot), intravenous, 340 mg/m2, 340 mg/m^2, cycle 1 Day 22, N = 3, mean ± SD
resultType: AUC (ng·h/mL)
Numeric only. Scale: ng·h/mL

For record O=C(NCCN1CCOCC1)Nc1nc2ccc(Sc3nnc4ccc(-c5ccc(F)cc5)nn34)cc2s1 [SAR125844] the listed AUC is 16500

====

measurementProtocol: phase I pharmacokinetics in blood (dried blood spot, LC-MS/MS, noncompartmental analysis)
Format: in vivo, human
details: human, whole blood (dried blood spot), intravenous, 570 mg/m2, at the RD (570 mg/m^2); read-out: volume of distribution at steady state
resultType: Vd

For record O=C(NCCN1CCOCC1)Nc1nc2ccc(Sc3nnc4ccc(-c5ccc(F)cc5)nn34)cc2s1 [SAR125844] the listed Vd is ~253 L

====

measurementProtocol: phase I pharmacokinetics in blood (dried blood spot, LC-MS/MS, noncompartmental analysis)
Format: in vivo, human
details: human, whole blood (dried blood spot), intravenous, 260 mg/m2, 260 mg/m^2, cycle 1 Day 22, N = 2, mean; read-out: Vss
resultType: Vd
A bare number is not enough; add the unit after it.

For record O=C(NCCN1CCOCC1)Nc1nc2ccc(Sc3nnc4ccc(-c5ccc(F)cc5)nn34)cc2s1 [SAR125844] the listed Vd is 186 L

====

measurementProtocol: phase I pharmacokinetics in blood (dried blood spot, LC-MS/MS, noncompartmental analysis)
Assay type: in vivo, human
details: human, whole blood (dried blood spot), intravenous, 570 mg/m2, 570 mg/m^2, cycle 1 Day 1, n = 20, mean ± SD; read-out: AUC0–168
resultType: AUC(0-t) (ng·h/mL)
Numeric only. Scale: ng·h/mL

For record `O=C(NCCN1CCOCC1)Nc1nc2ccc(Sc3nnc4ccc(-c5ccc(F)cc5)nn34)cc2s1` the listed AUC(0-t) is 36100

====

measurementProtocol: phase I pharmacokinetics in blood (dried blood spot, LC-MS/MS, noncompartmental analysis)
Type: in vivo, human
details: human, whole blood (dried blood spot), intravenous, 260 mg/m2, 260 mg/m^2, cycle 1 Day 1, n = 5, mean ± SD; read-out: AUC0–168
Procedure: Blood samples for pharmacokinetic analysis were acquired using dried blood-spot technology on days 1 and 22 of cycle 1 at several time points before, during, and after infusion (up to 168 hours after administration). Drug concentrations were determined by a validated method of liquid chromatography and tandem mass spectrometry (limit of quantification 2 ng/mL). […]
resultType: AUC(0-t) (ng·h/mL)
Numeric only. Scale: ng·h/mL

For record O=C(NCCN1CCOCC1)Nc1nc2ccc(Sc3nnc4ccc(-c5ccc(F)cc5)nn34)cc2s1 [SAR125844] the listed AUC(0-t) is 11800

All figures here come from paper PMC5668067.
